Protocol description: Cytotoxicity assay in MT-4 cells
Type: cell-based, human
Experimental conditions: human, uninfected MT-4 cells, 5 days incubation; read-out: CC50
Measured CC50 at 5 days accompanies every entry in the list below.
Numbers only here, please. The scale is µM.

Sample records with CC50 at 5 days:
Molecule: O=C(NCc1c(F)cc(F)cc1F)c1cn2c(c(O)c1=O)C(=O)N1C[C@@H]3CC[C@@H](C3)[C@@H]2C1
CC50 at 5 days (µM): 14.3
//
Molecule: O=C(NCc1c(F)cc(F)cc1F)c1cn2c(c(O)c1=O)C(=O)N1C[C@H]2CCCc2ccccc21
CC50 at 5 days (µM): 13.4
//
Molecule: C[C@@H]1CC[C@H]2CN(C1)C(=O)c1c(O)c(=O)c(C(=O)NCc3c(F)cc(F)cc3F)cn12
CC50 at 5 days (µM): 20.7

The molecule `O=C(NCc1ccc(F)cc1F)c1cn2c(c(O)c1=O)C(=O)N1CCCC(F)(F)[C@H]2C1` showed CC50 at 5 days equal to 36.2

Looking up O=C(NCc1ccc(F)cc1F)c1cn2c(c(O)c1=O)C(=O)N1CCc3cc(F)c(F)cc3[C@H]2C1 (single isomer, unassigned) , I found its CC50 at 5 days recorded as 5.91

CC50 at 5 days reported for this molecule `C[C@H]1CCC[C@H]2CN1C(=O)c1c(O)c(=O)c(C(=O)NCc3c(F)cc(F)cc3F)cn12` : 14.3

Briefly, CC50 at 5 days measured for `O=C(NCc1cccc(Cl)c1F)c1cn2c(c(O)c1=O)C(=O)N1CCCC[C@H]2C1` : 15.4

Kindly note the recorded CC50 at 5 days for `O=C(NCc1ccc(F)c(F)c1F)c1cn2c(c(O)c1=O)C(=O)N1CCCC[C@H]2C1` , which is 4.63

Recorded result, `O=C(NCc1ccccc1)c1cn2c(c(O)c1=O)C(=O)N1CCCC[C@H]2C1` , CC50 at 5 days: 18.7

The recorded CC50 at 5 days for entry CC1CCCN2CC1n1cc(C(=O)NCc3ccc(F)cc3F)c(=O)c(O)c1C2=O (stereo not drawn) equals 10.9

----------
Protocol description: Cytotoxicity assay in MT-4 cells
Assay type: cell-based, human
Experimental conditions: human, uninfected MT-4 cells, 5 days incubation; read-out: CC50
Measured attribute: CC50 at 5 days (µM)
Give the quantity in µM, number only.

The reported CC50 at 5 days of the compound O=C(NCc1ccc(F)c(Cl)c1F)c1cn2c(c(O)c1=O)C(=O)N1CC2CCc2cc(F)c(F)cc21 (stereo not shown) was 36.7

# CC50 at 5 days (compound: `C[C@@]1(F)CCN2C[C@H](C1)n1cc(C(=O)NCc3c(F)cc(F)cc3F)c(=O)c(O)c1C2=O` ) is 28.1

Record C[C@]12Cc3cc(F)c(F)cc3CN(C1)C(=O)c1c(O)c(=O)c(C(=O)NCc3c(F)cc(F)cc3F)cn12 (single isomer, unassigned) . Reported CC50 at 5 days: 11.8

----------
CC50 at 5 days values for the compounds below.
Protocol description: Cytotoxicity assay in MT-4 cells
Assay type: cell-based, human
Experimental conditions: human, uninfected MT-4 cells, 5 days incubation; read-out: CC50
Give your result in µM as a bare value.

Consider the following illustrative entries.
Compound: O=C(NCc1c(F)cc(F)cc1F)c1cn2c(c(O)c1=O)C(=O)N1C[C@@H]2CCC[C@@H]1CF [Example 164]
Measured attribute: CC50 at 5 days
Reported result: 10.4
--
Compound: O=C(NCc1ccc(F)cc1F)c1cn2c(c(O)c1=O)C(=O)N1CCc3cc(Cl)ccc3[C@H]2C1 [Example 140-1]
Measured attribute: CC50 at 5 days
Reported result: 14.6
--
Compound: O=C(NCc1ccc(F)cc1F)c1cn2c(c(O)c1=O)C(=O)N1CCc3ccccc3[C@@H]2C1 [Example 64-1]
Measured attribute: CC50 at 5 days
Reported result: 14.8
--
Compound: O=C(NCc1c(F)cc(F)cc1F)c1cn2c(c(O)c1=O)C(=O)N1CCCC(F)(F)[C@H]2C1 (single isomer, unassigned) [Example 10-2]
Measured attribute: CC50 at 5 days
Reported result: 16.1
--
Compound: O=C(NCc1c(F)cc(F)cc1F)c1cn2c(c(O)c1=O)C(=O)N1CCC[C@@H](F)[C@@H]2C1 [Example 15-1]
Measured attribute: CC50 at 5 days
Reported result: 18.3

Memo: C[C@@]1(F)CCCN2C[C@@H]1n1cc(C(=O)NCc3c(F)cc(F)cc3F)c(=O)c(O)c1C2=O [Example 61-2] , reported CC50 at 5 days: 16.9

Value of CC50 at 5 days reported for the compound O=C(NCc1c(F)cc(F)cc1F)c1cn2c(c(O)c1=O)C(=O)N1Cc3ccc(Cl)cc3C[C@H]2C1 (single isomer, unassigned) [Example 127-1] is 5.63

C[C@@H]1CC[C@H]2CN(C(=O)c3c(O)c(=O)c(C(=O)NCc4c(F)cc(F)cc4F)cn32)[C@H]1C [Example 108-1] yielded CC50 at 5 days of 16.1

In plain terms, C[C@H]1C=CC[C@H]2CN1C(=O)c1c(O)c(=O)c(C(=O)NCc3c(F)cc(F)cc3F)cn12 [Example 148] has a documented CC50 at 5 days of 13.8

Per the record, CCC1CCCN2CC1n1cc(C(=O)NCc3ccc(F)cc3F)c(=O)c(O)c1C2=O (stereo not drawn) [Example 106] has CC50 at 5 days of 6.84

// sample O=C(NCc1c(F)cc(F)cc1F)c1cn2c(c(O)c1=O)C(=O)N1CC=CC[C@H]2C1 [Example 101] , its CC50 at 5 days was 19.5

----------
Protocol description: Cytotoxicity assay in MT-4 cells
Assay type: cell-based, human
Experimental conditions: human, uninfected MT-4 cells, 5 days incubation; read-out: CC50
Rule: measured CC50 at 5 days below 10 µM gets t; anything equal to or greater than 10 µM gets f.

Molecule: O=C(NCc1cccc(Cl)c1F)c1cn2c(c(O)c1=O)C(=O)N1Cc3cc(F)c(F)cc3C[C@@H]2C1
Group: f
--
Molecule: O=C(NCc1c(F)cc(F)cc1F)c1cn2c(c(O)c1=O)C(=O)N1C[C@@H]2CCc2c(F)cccc21
Group: t
--
Molecule: O=C(NCc1c(F)cc(F)cc1F)c1cn2c(c(O)c1=O)C(=O)N1C[C@H]3CC[C@H](C3)[C@H]2C1
Group: f
--
Molecule: CC1CCN2C[C@H](C1)n1cc(C(=O)NCc3c(F)cc(F)cc3F)c(=O)c(O)c1C2=O (stereo partly drawn)
Group: f
--
Molecule: O=C(NCc1ccc(F)cc1F)c1cn2c(c(O)c1=O)C(=O)N1CCC[C@@H](F)[C@@H]2C1
Group: f
--
Molecule: O=C(NCc1ccc(Cl)cc1Cl)c1cn2c(c(O)c1=O)C(=O)N1CCCC[C@H]2C1
Group: t
--
Molecule: O=C(NCc1ccc(F)cc1F)c1cn2c(c(O)c1=O)C(=O)N1C[C@@H](F)CC[C@@H]2C1 (single isomer, unassigned)
Group: f
--
Molecule: O=C(NCc1ccc(F)cc1F)c1cn2c(c(O)c1=O)C(=O)N1Cc3cc(F)c(F)cc3C[C@H]2C1
Group: f

Now turn to the next molecule.
CC50 at 5 days strictly < 10 µM for this molecule? `C[C@]1(F)CCCN2C[C@@H]1n1cc(C(=O)NCc3c(F)cc(F)cc3F)c(=O)c(O)c1C2=O` f

----------
Test system: pLai RLuc reporter virus
Protocol description: microbe, parasite or virus in culture
Assay type: cell-based, HIV
Experimental conditions: Human immunodeficiency virus 1, 72 h, read-out: Antiviral Serum Shift RLuc CCM, CCM (RPMI media, 10% FBS, 1% P/S), 72-h incubation
Label scheme for EC50: low end (below 300 pM), middle (300 pM to below 700 pM), high end (700 pM or more)

Worked cases, answers included:
Molecule: O=C(NCc1ccc(F)cc1F)c1cn2c(c(O)c1=O)C(=O)N1C[C@@H]2CCC(F)(F)C1 [Example 4-2]
Group: high end
--
Molecule: O=C(NCc1ccc(F)cc1F)c1cn2c(c(O)c1=O)C(=O)N1CC[C@@H](F)C[C@H]2C1 [Example 56-2]
Group: middle
--
Molecule: O=C(NCc1ccc(F)cc1F)c1cn2c(c(O)c1=O)C(=O)N1CCC[C@H]3C[C@@]32C1 [Example 65-2]
Group: middle
--
Molecule: C[C@]12CC(F)CCN(C1)C(=O)c1c(O)c(=O)c(C(=O)NCc3c(F)cc(F)cc3F)cn12 (single isomer, unassigned) [Example 112]
Group: low end
--
Molecule: O=C(NCc1c(F)cc(F)cc1F)c1cn2c(c(O)c1=O)C(=O)N1CCCC(F)(F)[C@@H]2C1 (single isomer, unassigned) [Example 10-1]
Group: high end
--
Molecule: O=C(NCc1ccc(F)cc1F)c1cn2c(c(O)c1=O)C(=O)N1CC/C=C\C[C@H]2C1 [Example 44-2]
Group: low end
--
Molecule: O=C(NCc1c(F)cc(F)cc1F)c1cn2c(c(O)c1=O)C(=O)N1CCC=C[C@H]2C1 [Example 109-2]
Group: low end
--
Molecule: O=C(NCc1ccc(F)cc1F)c1cn2c(c(O)c1=O)C(=O)N1C[C@@H](F)CC[C@H]2C1 (single isomer, unassigned) [Example 53-2]
Group: high end
--
Molecule: O=C(NCc1c(F)cc(F)cc1F)c1cn2c(c(O)c1=O)C(=O)N1C[C@@H]3CC[C@@H](C3)[C@@H]2C1 [Example 41-2]
Group: low end
--
Molecule: O=C(NCc1c(F)cc(F)cc1F)c1cn2c(c(O)c1=O)C(=O)N1C[C@@H]2C[S+]([O-])c2ccccc21 (some centres unmarked) [Example 95]
Group: high end

Could you place O=C(NCc1c(F)cc(F)cc1F)c1cn2c(c(O)c1=O)C(=O)N1C[C@@H]2CCc2c(F)cccc21 [Example 43-1] in its proper category? Many thanks. high end

Which class does O=C(NCc1ccc(F)cc1F)c1cn2c(c(O)c1=O)C(=O)N1CC=CC[C@H]2C1 [Example 47-2] fall in? low end

Record O=C(NCc1ccc(F)cc1F)c1cn2c(c(O)c1=O)C(=O)N1C[C@H](F)CC[C@H]2C1 (single isomer, unassigned) [Example 53-1] — which class? middle

Band of O=C(NCc1ccc(F)cc1F)c1cn2c(c(O)c1=O)C(=O)N1Cc3cc(F)ccc3C[C@H]2C1 [Example 146] ? low end

Entry C[C@H]1C[C@H]2CN(C(=O)c3c(O)c(=O)c(C(=O)NCc4c(F)cc(F)cc4F)cn32)[C@@H](C)C1 [Example 142-2] belongs to which category? middle

Hello, the source for this data is patent US12227520B2, in case you need it.
